For each entry below, report its IC50 value.
- Test system: IL-8-induced neutrophil shape change in human whole blood
- assay-explanation: Whole blood neutrophil shape change assay (L)
- Assay type: cell-based
- condition-set: Homo sapiens, Neutrophil, IL-8, human whole blood, read-out: Assay L WBSC IC50
Only the number, expressed in nM, is required.

The recorded IC50 for entry Cc1ccc(S(=O)(=O)NCC2(O)CC2)cc1-c1cnc(N)c(-n2cncn2)n1 [Example 28] equals 759

The recorded IC50 for entry Cc1ccc(S(=O)(=O)NOCC(C)(C)O)cc1-c1cnc(N)c(-n2cncn2)n1 [Example 31] equals 917

The recorded IC50 for entry Cc1ccc(S(=O)(=O)NCC2(CO)COC2)cc1-c1cnc(N)c(-c2cn(C)nc2C)n1 [Example 128] equals 2990

The recorded IC50 for entry Cc1ncc(-c2nc(-c3cc(S(=O)(=O)NCC4(CO)COC4)ccc3C)cnc2N)s1 [Example 44] equals 413

The recorded IC50 for entry Cc1ccc(S(=O)(=O)NCCC(C)(C)O)cc1-c1cnc(N)c(-c2cnn(Cc3ccccn3)c2)n1 [Example 119.37] equals 581

Just for reference, patent US10004732B2 is where these values come from.
